# tgt: human cannabinoid CB1 receptor (Homo sapiens, UniProt P21554)
# Sequence (P21554 whole entry): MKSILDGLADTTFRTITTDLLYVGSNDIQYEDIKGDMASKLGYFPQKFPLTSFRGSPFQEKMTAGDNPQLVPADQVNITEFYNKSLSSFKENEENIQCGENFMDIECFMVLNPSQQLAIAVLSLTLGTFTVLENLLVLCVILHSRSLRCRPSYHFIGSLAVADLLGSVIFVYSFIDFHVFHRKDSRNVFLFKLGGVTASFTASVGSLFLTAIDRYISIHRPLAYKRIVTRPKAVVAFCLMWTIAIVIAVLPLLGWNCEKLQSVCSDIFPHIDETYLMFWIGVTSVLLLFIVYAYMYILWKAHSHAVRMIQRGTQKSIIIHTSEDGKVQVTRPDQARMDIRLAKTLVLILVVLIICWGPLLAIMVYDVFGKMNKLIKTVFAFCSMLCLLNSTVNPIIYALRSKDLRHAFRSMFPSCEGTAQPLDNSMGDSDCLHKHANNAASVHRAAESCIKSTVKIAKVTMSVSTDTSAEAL
# test: CB1 receptor radioligand ([3H]CP-55,940) displacement binding assay
# experimental_setup: read-out: CB1 (Ki)
# Protocol: In all cases, Ki values were calculated by applying the Cheng-Prusoff equation [34] to the IC50 values (obtained by GraphPad, GraphPad Software, Inc., La Jolla, CA, USA) for the displacement of the bound radioligand by increasing concentrations of the test compounds (after three separate experiments for each compound).
# thresholds on Ki define classes: bin 1: < 500 nM; bin 2: ≥ 500 nM and < 1000 nM; bin 3: ≥ 1000 nM

Query block: State the class of the compound shown: Fc1ccc2c(c1)nc(-c1cccnc1)n2Cc1ccc2ccccc2c1
Result block: bin 1

Query block: Which category fits this record: Fc1ccc2nc(-c3ccncc3)n(Cc3ccc4ccccc4c3)c2c1
Result block: bin 2

Query block: Hey, which category is c1ccc2cc(Cn3c(-c4ccncc4)nc4ccccc43)ccc2c1 in, do you know?
Result block: bin 1

Query block: Into which bin does this compound go? O=C(c1ccc2ccccc2c1)n1c(-c2cccnc2)nc2cc(F)ccc21
Result block: bin 3

Query block: Returns: class label. Input: Cc1cc2nc(-c3ccncc3)n(Cc3ccc4ccccc4c3)c2cc1C
Result block: bin 1

Query block: For c1cncc(-c2nc3ccccc3n2Cc2ccc3ccccc3c2)c1 , which Ki bin applies?
Result block: bin 3

Query block: GET /class?item= Fc1ccc2nc(-c3ccncc3)n(Cc3cccc4ccccc34)c2c1
Result block: bin 2

Query block: Place this compound in its band: O=C(c1ccc2ccccc2c1)n1c(-c2ccncc2)nc2ccccc21
Result block: bin 3

Query block: Which category does the recorded Ki put O=C(c1ccc2ccccc2c1)n1c(-c2cccnc2)nc2ccc(F)cc21 in?
Result block: bin 2

Query block: Assign a bin to c1ccc2c(Cn3c(-c4ccncc4)nc4ccccc43)cccc2c1
Result block: bin 1
